Molecular target: ERR-α (Homo sapiens, UniProt P11474)
Construct: made in house; host or cells: Spodoptera frugiperda (Sf9) insect cells, baculovirus
Sequence (P11474 with tags, fused parts or gaps): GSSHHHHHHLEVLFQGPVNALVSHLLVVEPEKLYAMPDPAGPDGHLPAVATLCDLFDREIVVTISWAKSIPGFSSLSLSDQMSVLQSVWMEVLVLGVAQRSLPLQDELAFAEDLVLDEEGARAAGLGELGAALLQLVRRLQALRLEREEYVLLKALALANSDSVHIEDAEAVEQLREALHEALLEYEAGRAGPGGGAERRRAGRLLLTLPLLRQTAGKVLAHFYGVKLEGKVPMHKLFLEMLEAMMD
Experiment: LC/MS kinetics of association and dissociation for ligands forming a covalent bond to Cys325 of ERR-α
Assay type: binding
Conditions: dissociation rate by LC/MS with 20-fold excess Compound 2 as competing ligand; 37° C.
reported metric: kd (s⁻¹)

For COc1cc(/C=C2\SC(N3CCN(C)CC3)=NC2=O)ccc1Oc1ccc(C#N)cc1C(F)(F)F the compound record lists kd as 1.53e-05

// recorded kd for CN1CCN(C2=NC(=O)/C(=C/c3ccc(Oc4ccc(C#N)cc4C(F)(F)F)c(F)c3)S2)CC1 : 2.19e-05

Form: compound = COc1cc(/C=C2\SC(N)=NC2=O)ccc1Oc1ccc(C#N)cc1C(F)(F)F ; kd = 2.05e-05

// field: kd; key: COc1cc(/C=C2\SC(=O)NC2=O)ccc1Oc1ccc(C#N)cc1C(F)(F)F ; value = 1.1e-05
